# System: Escherichia coli ATCC 25922
# TEST_PROTOCOL: Minimum inhibitory concentration (MIC), CLSI broth micro-dilution, E. coli
# Format: cell-based
# MEASUREMENT_CONTEXT: Escherichia coli, ATCC25922, 22 h, Table 7, cation adjusted Mueller Hinton Broth + 0.002% Tween-80, 35° C.
REPORTED_ENDPOINT: MIC (µM)

COc1c(OCCN)cc2cc1-c1cc(cc(OCCN)c1OC)[C@H](N(C)C(=O)[C@H](CCN)NC(=O)c1c(C)nc(-c3ccc(C(C)(C)C)cc3)nc1C)C(=O)N[C@@H](C)C(=O)N[C@H](C(=O)NCC#N)C2 (racemic)	0.19
Cc1nc(-c2ccc(C(C)(C)C)cc2)nc(C)c1C(=O)N[C@@H](CCN)C(=O)N(C)[C@@H]1C(=O)N[C@@H](C)C(=O)N[C@H](C(=O)NCC#N)Cc2ccc(OCCN)c(c2)-c2cc1cc(NC(N)=O)c2O (racemic)	0.25

A. Cc1nc(-c2ccc(C(C)(C)C)cc2)nc(C)c1C(=O)N[C@@H](CCN)C(=O)N(C)[C@@H]1C(=O)N[C@@H](C)C(=O)N[C@H](C(=O)NCC#N)Cc2ccc(O)c(c2)-c2cc1ccc2OC[C@H](O)CN (racemic)
B. CNCCOc1ccc2cc1-c1cc(ccc1O)C[C@@H](C(=O)NCC#N)NC(=O)[C@H](C)NC(=O)[C@H]2N(C)C(=O)[C@H](CCN)NC(=O)c1c(C)nc(-c2ccc(C(C)(C)C)cc2)nc1C (racemic)
Request: Lower value of MIC belongs to which: A or B ? // caller expects the label of the chosen entry
Response: A

---

# Tested on: Escherichia coli ATCC 25922
# TEST_PROTOCOL: Minimum inhibitory concentration (MIC), CLSI broth micro-dilution, E. coli
# Assay type: cell-based
# MEASUREMENT_CONTEXT: Escherichia coli, ATCC25922, 22 h, Table 7, cation adjusted Mueller Hinton Broth + 0.002% Tween-80, 35° C.
REPORTED_ENDPOINT: MIC (µM)

Consider the worked cases shown below.
Cc1nc(-c2ccc(OC(C)C)cc2)nc(C)c1C(=O)N[C@@H](CNS(N)(=O)=O)C(=O)N(C)[C@@H]1C(=O)N[C@@H](C)C(=O)N[C@H](C(=O)NCC#N)Cc2ccc(OC[C@H](O)CN)c(c2)-c2cc1ccc2OC[C@H](O)CN (racemic) [Compound 579]	0.75
Cc1nc(-c2ccc(C(C)(C)C)cc2)nc(C)c1C(=O)N[C@@H](CCN)C(=O)N(C)[C@@H]1C(=O)N[C@@H](C)C(=O)N[C@H](C(=O)NCC#N)Cc2ccc(OCC(CN)CN)c(c2)-c2cc1ccc2O (racemic) [Compound 610]	0.19

I. Cc1nc(-c2ccc(OC3CCCCC3)cc2)nc(C)c1C(=O)N[C@@H](CNS(N)(=O)=O)C(=O)N(C)[C@@H]1C(=O)N[C@@H](C)C(=O)N[C@H](C(=O)NCC#N)Cc2ccc(OC[C@H](O)CN)c(c2)-c2cc1ccc2OC[C@H](O)CN (racemic) [Compound 578]
II. Cc1nc(-c2ccc(C(C)(C)C)cc2)nc(C)c1C(=O)N[C@@H](CCNS(N)(=O)=O)C(=O)N(C)[C@@H]1C(=O)N[C@@H](C)C(=O)N[C@H](C(=O)NCC#N)Cc2ccc(OC[C@H](O)CN)c(c2)-c2cc1ccc2OC[C@H](O)CN (racemic) [Compound 580]
Request: In terms of reported MIC, does I or II have the smaller number? Bench note: the answer is the label of the chosen record.
Response: I
(I: 0.19 µM, II: 0.58 µM)
